- system_under_test: UniProt:O75469
- Sequence (O75469 whole entry): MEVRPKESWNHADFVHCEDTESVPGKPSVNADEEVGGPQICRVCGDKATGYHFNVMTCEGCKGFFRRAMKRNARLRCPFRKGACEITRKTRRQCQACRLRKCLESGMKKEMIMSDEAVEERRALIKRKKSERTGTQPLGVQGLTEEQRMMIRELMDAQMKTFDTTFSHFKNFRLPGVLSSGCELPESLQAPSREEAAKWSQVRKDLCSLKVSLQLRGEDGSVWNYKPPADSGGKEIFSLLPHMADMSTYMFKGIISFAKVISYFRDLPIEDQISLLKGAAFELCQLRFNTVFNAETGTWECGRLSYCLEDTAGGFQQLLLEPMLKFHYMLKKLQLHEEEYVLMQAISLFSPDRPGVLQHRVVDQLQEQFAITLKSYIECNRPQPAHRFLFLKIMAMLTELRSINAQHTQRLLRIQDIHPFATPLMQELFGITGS
- assay_comment: Transactivation of PXR (unknown origin) expressed in human HepG2 cells assessed as maximum receptor activation response relative to control
- Type: cell-based
- experimental_setup: human HepG2 cells that express PXR, read-out: %max
endpoint_label: Emax (%)

Example results:
compound=CC[C@]1(C(=O)N2CC[C@](c3ccc(C(F)(C(F)(F)F)C(F)(F)F)cc3)(S(=O)(=O)c3ccc(F)cc3)C2)CC[C@H](C(=O)O)CC1 unit_of_measurement=% recorded_measurement=6
compound=NC(=O)[C@H]1CC[C@H](C(=O)N2CC[C@](c3ccc(C(F)(C(F)(F)F)C(F)(F)F)cc3)(S(=O)(=O)c3ccc(F)cc3)C2)CC1 unit_of_measurement=% recorded_measurement=5
compound=COC1(C(=O)N2CC[C@](c3ccc(C(F)(C(F)(F)F)C(F)(F)F)cc3)(S(=O)(=O)c3ccc(F)cc3)C2)CCS(=O)(=O)CC1 unit_of_measurement=% recorded_measurement=3
compound=O=C(O)C12CCC(C(=O)N3CC[C@](c4ccc(C(F)(C(F)(F)F)C(F)(F)F)cc4)(S(=O)(=O)c4ccc(F)cc4)C3)(CC1)OC2 unit_of_measurement=% recorded_measurement=5
compound=O=C(C1CCS(=O)(=O)CC1)N1CC[C@](c2ccc(C(F)(C(F)(F)F)C(F)(F)F)cc2)(S(=O)(=O)c2ccc(F)cc2)C1 unit_of_measurement=% recorded_measurement=5
compound=O=C([C@H]1CC[C@H](O)CC1)N1CC[C@](c2ccc(C(F)(C(F)(F)F)C(F)(F)F)cc2)(S(=O)(=O)c2ccc(F)cc2)C1 unit_of_measurement=% recorded_measurement=13
compound=O=C(O)[C@@H]1C[C@@H]2[C@H](C1)[C@H]2C(=O)N1CC[C@](c2ccc(C(F)(C(F)(F)F)C(F)(F)F)cc2)(S(=O)(=O)c2ccc(F)cc2)C1 unit_of_measurement=% recorded_measurement=43
compound=O=C(N1CC[C@](c2ccc(C(F)(C(F)(F)F)C(F)(F)F)cc2)(S(=O)(=O)c2ccc(F)cc2)C1)C1(O)CCS(=O)(=O)CC1 unit_of_measurement=% recorded_measurement=6

[a] O=C(O)[C@H]1CC[C@](F)(C(=O)N2CC[C@](c3ccc(C(F)(C(F)(F)F)C(F)(F)F)cc3)(S(=O)(=O)c3ccc(F)cc3)C2)CC1
[b] CO[C@]1(C(=O)N2CC[C@](c3ccc(C(F)(C(F)(F)F)C(F)(F)F)cc3)(S(=O)(=O)c3ccc(F)cc3)C2)CC[C@H](C(=O)O)CC1
[c] CC[C@]1(C(=O)O)CC[C@H](C(=O)N2CC[C@](c3ccc(C(F)(C(F)(F)F)C(F)(F)F)cc3)(S(=O)(=O)c3ccc(F)cc3)C2)CC1
[d] C[C@]1(C(=O)O)CC[C@H](C(=O)N2CC[C@](c3ccc(C(F)(C(F)(F)F)C(F)(F)F)cc3)(S(=O)(=O)c3ccc(F)cc3)C2)CC1
[e] O=C(C1CCS(=O)(=O)C1)N1CC[C@](c2ccc(C(F)(C(F)(F)F)C(F)(F)F)cc2)(S(=O)(=O)c2ccc(F)cc2)C1 (stereo in doubt; 32)
Ask | // ranking: key=Emax, reverse=True Rank them, then answer with their labels in that order.
Reply | b, e, a, d, c
(b: 94%, e: 49%, a: 31%, d: 18%, c: 6%)

Values from ChEMBL document CHEMBL4387773
